testMethodNotes: chemical genetic growth profiling, strain panel (AID 1159580);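 note: tested at 20 µM; growth read once vehicle control cultures reached saturation at 30 °C; lower values mean less growth of the strain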
appliedConditions: S. cerevisiae deletion strains, growth OD, locus YDR069C, strain doa4
About 2,000 (36%) of roughly 5,500 compounds were called active. Roughly 18% stayed inconclusive and do not appear here. Cut-off read from the data, not from the text of the source: active = normalized growth mostly below about 0.91 (no sharp cut-off); inconclusive = no clear call, values can overlap the other calls; inactive = mostly above about 0.92. The list shows a part of the results.
Field 'call' accepts YES (active), NO (inactive)

CCN1CCN(C(=O)NC(C(=O)N[C@@H]2C(=O)N3[C@@H]2SC(C)(C)[C@@H]3C(=O)O)c2ccccc2)C(=O)C1=O (some centres not stated) ... NO
CC(=O)O[C@H]1CC[C@@]2(C)C(C[C@@H](OC(C)=O)[C@@]3(C)C4=CC(=O)O[C@@H](c5ccoc5)[C@]4(C)CCC23)C1(C)C (some centres not stated) ... NO
CC(N=C(NC#N)Nc1ccncc1)C(C)(C)C (configuration not stated) ... NO
O=C1NC(O)=NC1(c1ccccc1)c1ccccc1 ... NO
Oc1c(Cl)cc(Cl)cc1Sc1cc(Cl)cc(Cl)c1O ... YES
Nc1ccc(C(=O)O)cc1 ... NO
CC(=O)O[C@H]1CCC2(C)C3=C(CCC2C1(C)C)[C@]1(C)CCC(C(C)CCC=C(C)C)[C@@]1(C)CC3 (some centres not stated) ... NO
O=C(O)c1cc(O)c2c(c1)[C@@H]([C@H]1c3cc(C(=O)O)cc(O)c3C(=O)c3c(O[C@H]4O[C@H](CO)[C@@H](O)[C@H](O)[C@H]4O)cccc31)c1cccc(O[C@H]3O[C@H](CO)[C@@H](O)[C@H](O)[C@H]3O)c1C2=O ... NO

API: the following record is the query input.
Task: How was `CCN(CC)CCOC(=O)C1(C2CCCCC2)CCCCC1` classified in this test?
Output: NO
